target: Guanidinoacetate N-methyltransferase (Homo sapiens); experiment: Confirmatory Screen for Target Class Profiling of Small Molecule Inhibitors of Methyltransferases (AID 1745852); details: MTase-Glo luminescence, SAH detection, recombinant enzyme; at 57.3 µM (top of the series) unless noted; further: on the % scale 0 is the no-effect control and ±100 the full control effect
Experimental readout: activity change, negative = inhibition (%)
Answers are plain numbers, in %.

| Compound | Experimental system | activity change, negative = inhibition [%] |
| --- | --- | --- |
| COc1ccc(CC(NC(C)=O)C(=O)O)cc1 (stereo unspecified) | Guanidinoacetate N-methyltransferase (Homo sapiens) | 0 |

Hey, quick one: what's activity change, negative = inhibition for each of these?
1. O=C(O)Cn1nnc(-c2ccc(CN(CCCCOc3ccc(CN4CCCC4)cc3)CCc3ccccc3)cc2)n1
2. CC(=O)OC/C(=C/C(=O)O)CC[C@@H]1C(CO)=CC[C@@H]2C(C)(C)CCC[C@@]12C
3. COc1cnc(-c2ccc(Cn3c(CC(C)(C)C(=O)O)c(SC(C)(C)C)c4cc(OC[C@@H]5Cc6ccccc6N5C(C)=O)ccc43)cc2)nc1
4. C=C[C@H]1[C@H](O[C@@H]2O[C@H](CO)[C@@H](O)[C@H](O)[C@H]2O)OC=C(C(=O)OC)[C@H]1CCO

0
-4.99
-3.63
-3.63
